- Target: VMAT2 (Homo sapiens)
- Test: hVMAT2 [3H]DTBZ ([3H]DHTB) binding assay
- Set-up: expressed in transfected cells; host or cells: HEK (human embryonic kidney) cells
- Run conditions: cells printed in μM under a head in nM; HEK-hVMAT2 membranes
Ki values by entry

Study these solved cases before continuing.
INSERT INTO results (compound, observed) VALUES
  ('CCOC(=O)[C@@H]1CN(CCn2c(=O)[nH]c3ccccc3c2=O)CC[C@@H]1c1ccc(C)cc1 (racemic) [Compound 5b]', '> 9 µM'),
  ('CCOC(=O)[C@@H]1CN(CCn2c(=O)[nH]c3ccccc3c2=O)CC[C@@H]1c1cccc(C(F)(F)F)c1 (racemic) [Compound 5g]', '> 10 µM');

[ask] If you can, please state the reported Ki value of CCOC(=O)[C@H]1CN(CCn2c(=O)[nH]c3ccccc3c2=O)CC[C@H]1c1cccc(N=[N+]=[N-])c1 (racemic) [Compound 5cc] .
[reply] > 7 µM

[ask] If you can, please state the reported Ki value of CCOC(=O)[C@@H]1CN(CCn2c(=O)[nH]c3ccccc3c2=O)CC[C@@H]1c1ccc([N+](=O)[O-])cc1 (racemic) [Compound 5tt] .
[reply] > 10 µM

====

melting point values by entry
Where a name gives a salt, the structure may show the parent alone.

INSERT INTO measurements (compound, observed) VALUES
  ('COC(=O)[C@H]1CN(CCn2c(=O)[nH]c3ccccc3c2=O)CC[C@H]1c1ccc(F)cc1 (racemic) (as salt: HCl) [Compound 10a]', '191.5 to 193 °C'),
  ('CCOC(=O)C1=C(c2ccccc2C(F)(F)F)CCN(CCn2c(=O)[nH]c3ccccc3c2=O)C1 (as salt: HCl)', '153.5 to 154.5 °C');

Read the next record carefully.
[ask] If you can, please state the reported melting point value of CCOC(=O)[C@@H]1CN(CCn2c(=O)c3ccccc3n(C)c2=O)CC[C@@H]1c1cccc(F)c1 (racemic) .
[reply] 101.2 to 102.5 °C

====

- Target: VMAT2 (Homo sapiens, UniProt Q05940)
- Sequence (Q05940 whole entry): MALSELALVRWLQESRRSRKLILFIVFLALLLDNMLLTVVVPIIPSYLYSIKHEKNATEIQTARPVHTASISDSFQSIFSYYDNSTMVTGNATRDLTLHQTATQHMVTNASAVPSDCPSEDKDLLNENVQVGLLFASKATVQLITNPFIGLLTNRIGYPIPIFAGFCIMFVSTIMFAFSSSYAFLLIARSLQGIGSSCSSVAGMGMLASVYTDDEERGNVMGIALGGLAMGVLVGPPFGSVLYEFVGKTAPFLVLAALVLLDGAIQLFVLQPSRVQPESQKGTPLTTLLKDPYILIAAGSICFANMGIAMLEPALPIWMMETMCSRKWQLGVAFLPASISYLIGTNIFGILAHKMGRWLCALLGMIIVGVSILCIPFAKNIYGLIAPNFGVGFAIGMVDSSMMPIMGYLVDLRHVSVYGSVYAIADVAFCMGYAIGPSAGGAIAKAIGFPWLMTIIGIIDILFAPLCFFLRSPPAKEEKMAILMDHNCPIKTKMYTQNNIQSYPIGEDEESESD
- Test: hVMAT2 [3H]DTBZ ([3H]DHTB) binding assay
- Design: expressed in transfected cells; host or cells: HEK (human embryonic kidney) cells
- Run conditions: cells printed in μM under a head in nM; HEK-hVMAT2 membranes
Quantity name: Ki

[ask] If you can, please state the reported Ki value of CCOC(=O)[C@@H]1CN(CCn2c(=O)c3ccccc3n(C)c2=O)CC[C@@H]1c1cccc(F)c1 (racemic) .
[reply] > 9 µM

[ask] If you can, please state the reported Ki value of CCOC(=O)[C@@H]1CN(CCn2c(=O)[nH]c3sccc3c2=O)CC[C@@H]1c1ccc(F)cc1 (racemic) .
[reply] > 10 µM

[ask] If you can, please state the reported Ki value of CCOC(=O)[C@H]1CN(CCn2c(=O)[nH]c3ccccc3c2=O)CC[C@H]1c1ccc(OC(F)(F)F)cc1 (racemic) .
[reply] > 5 µM

[ask] If you can, please state the reported Ki value of CCOC(=O)[C@@H]1CN(CCn2c(=O)[nH]c3ccccc3c2=O)CC[C@@H]1c1cccc(F)c1 (racemic) .
[reply] > 10 µM

[ask] If you can, please state the reported Ki value of CCOC(=O)[C@@H]1CN(CCn2c(=O)[nH]c3ccccc3c2=O)CC[C@@H]1c1ccc(C(F)(F)F)cc1 (racemic) .
[reply] > 10 µM

[ask] If you can, please state the reported Ki value of CCOC(=O)[C@@H]1CN(CCn2c(=O)[nH]c3sccc3c2=O)CC[C@@H]1c1cccc(C(F)(F)F)c1 (relative stereo) .
[reply] > 10 µM

[ask] If you can, please state the reported Ki value of CCOC(=O)[C@@H]1CN(CCn2c(=O)[nH]c3sccc3c2=O)CC[C@@H]1c1cccc(F)c1 (racemic) .
[reply] > 10 µM

[ask] If you can, please state the reported Ki value of CCOC(=O)[C@H]1CN(CCn2c(=O)[nH]c3ccccc3c2=O)CC[C@H]1c1ccccc1N(C)C (racemic) .
[reply] > 6 µM

[ask] If you can, please state the reported Ki value of CCOC(=O)[C@H]1CN(CCn2c(=O)[nH]c3ccccc3c2=O)CC[C@H]1c1ccc(N)cc1 (racemic) .
[reply] > 10 µM
